- assay-protocol: Cmax in rat at 5 mg/kg, po
- Assay type: ADME, organism-based
- Design: route oral, dose 5 mg/kg
- run-parameters: in vivo

compound: C[C@@H]1CN(c2ccc(S(C)(=O)=O)cc2F)CCN1c1nccc(C(=O)NC2C3CC4CC2CC(O)(C4)C3)n1 (stereo partly specified)
Cmax: 1020 ng/mL

###

- assay-protocol: Metabolic stability in mouse liver microsomes assessed as compound remaining after 30 mins
- Format: ADME, Microsome
- run-parameters: read-out: Stabilty

compound: CNC(=O)c1ccc(N2CCN(c3cccc(C(=O)NC4C5CC6CC4CC(O)(C6)C5)n3)[C@H](C)C2)cc1 (stereo partly specified)
remaining at 0.5 h (%): 61
--
compound: C[C@@H]1CN(c2ccc(C#N)cc2)CCN1c1nccc(C(=O)NC2C3CC4CC2CC(O)(C4)C3)n1 (stereo partly specified)
remaining at 0.5 h (%): 86
--
compound: C[C@@H]1CN(c2ccc(C(=O)O)cc2)CCN1c1cccc(C(=O)NC2C3CC4CC2CC(O)(C4)C3)n1 (stereo partly specified)
remaining at 0.5 h (%): 71
--
compound: C[C@@H]1CN(c2ccc(C(C)(C)O)nc2)CCN1c1cccc(C(=O)NC2C3CC4CC2CC(O)(C4)C3)n1 (stereo partly specified)
remaining at 0.5 h (%): 76
--
compound: Cc1cc(S(C)(=O)=O)ccc1N1CCN(c2nccc(C(=O)NC3C4CC5CC3CC(O)(C5)C4)n2)[C@H](C)C1 (stereo partly specified)
remaining at 0.5 h (%): 90
--
compound: C[C@@H]1CN(c2ccc(F)cc2)CCN1c1nccc(C(=O)NC2C3CC4CC2CC(O)(C4)C3)n1 (stereo partly specified)
remaining at 0.5 h (%): 82

###

- assay-protocol: Oral bioavailability in dog at 4 mg/kg
- Assay type: ADME, organism-based, Canis lupus familiaris
- run-parameters: in vivo

compound: C[C@@H]1CN(c2ccc(S(C)(=O)=O)cc2F)CCN1c1nccc(C(=O)NC2C3CC4CC2CC(O)(C4)C3)n1 (stereo partly specified)
unit-descriptor: %
bioavailability: 98

###

- assay-protocol: Volume of distribution at steady state in mouse at 1 mg/kg, iv
- Format: ADME, organism-based
- run-parameters: in vivo, read-out: Vdss

molecule: C[C@@H]1CN(c2ccc(S(C)(=O)=O)cc2F)CCN1c1nccc(C(=O)NC2C3CC4CC2CC(O)(C4)C3)n1 (stereo partly specified)
unit-descriptor: L/kg
Vd: 1.1

###

Entries with reported IC50 on Cytochrome P450 2D6 (Homo sapiens, UniProt P10635)
Sequence (P10635 whole entry): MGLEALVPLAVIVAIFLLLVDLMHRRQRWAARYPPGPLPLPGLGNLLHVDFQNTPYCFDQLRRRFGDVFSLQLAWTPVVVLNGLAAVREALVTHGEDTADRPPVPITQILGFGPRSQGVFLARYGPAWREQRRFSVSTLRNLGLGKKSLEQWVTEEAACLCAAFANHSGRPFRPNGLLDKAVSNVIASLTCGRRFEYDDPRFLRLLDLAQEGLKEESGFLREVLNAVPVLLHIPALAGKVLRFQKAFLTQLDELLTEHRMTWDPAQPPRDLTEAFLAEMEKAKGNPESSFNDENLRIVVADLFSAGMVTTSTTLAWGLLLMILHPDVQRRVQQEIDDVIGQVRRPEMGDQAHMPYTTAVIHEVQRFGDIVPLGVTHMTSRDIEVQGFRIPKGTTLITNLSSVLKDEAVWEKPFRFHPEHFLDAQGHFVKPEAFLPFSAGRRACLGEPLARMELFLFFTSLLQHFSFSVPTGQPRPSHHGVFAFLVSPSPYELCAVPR

compound: C[C@@H]1CN(c2ccc(S(C)(=O)=O)cc2F)CCN1c1nccc(C(=O)NC2C3CC4CC2CC(O)(C4)C3)n1 (some centres not stated)
IC50: > 10 µM

compound: CNC(=O)c1ccc(N2CCN(c3cccc(C(=O)NC4C5CC6CC4CC(O)(C6)C5)n3)[C@H](C)C2)cn1 (some centres not stated)
IC50: > 10 µM

###

- tested-system: Voltage-gated inwardly rectifying potassium channel KCNH2 (Homo sapiens, UniProt Q12809)
- Sequence (Q12809 whole entry): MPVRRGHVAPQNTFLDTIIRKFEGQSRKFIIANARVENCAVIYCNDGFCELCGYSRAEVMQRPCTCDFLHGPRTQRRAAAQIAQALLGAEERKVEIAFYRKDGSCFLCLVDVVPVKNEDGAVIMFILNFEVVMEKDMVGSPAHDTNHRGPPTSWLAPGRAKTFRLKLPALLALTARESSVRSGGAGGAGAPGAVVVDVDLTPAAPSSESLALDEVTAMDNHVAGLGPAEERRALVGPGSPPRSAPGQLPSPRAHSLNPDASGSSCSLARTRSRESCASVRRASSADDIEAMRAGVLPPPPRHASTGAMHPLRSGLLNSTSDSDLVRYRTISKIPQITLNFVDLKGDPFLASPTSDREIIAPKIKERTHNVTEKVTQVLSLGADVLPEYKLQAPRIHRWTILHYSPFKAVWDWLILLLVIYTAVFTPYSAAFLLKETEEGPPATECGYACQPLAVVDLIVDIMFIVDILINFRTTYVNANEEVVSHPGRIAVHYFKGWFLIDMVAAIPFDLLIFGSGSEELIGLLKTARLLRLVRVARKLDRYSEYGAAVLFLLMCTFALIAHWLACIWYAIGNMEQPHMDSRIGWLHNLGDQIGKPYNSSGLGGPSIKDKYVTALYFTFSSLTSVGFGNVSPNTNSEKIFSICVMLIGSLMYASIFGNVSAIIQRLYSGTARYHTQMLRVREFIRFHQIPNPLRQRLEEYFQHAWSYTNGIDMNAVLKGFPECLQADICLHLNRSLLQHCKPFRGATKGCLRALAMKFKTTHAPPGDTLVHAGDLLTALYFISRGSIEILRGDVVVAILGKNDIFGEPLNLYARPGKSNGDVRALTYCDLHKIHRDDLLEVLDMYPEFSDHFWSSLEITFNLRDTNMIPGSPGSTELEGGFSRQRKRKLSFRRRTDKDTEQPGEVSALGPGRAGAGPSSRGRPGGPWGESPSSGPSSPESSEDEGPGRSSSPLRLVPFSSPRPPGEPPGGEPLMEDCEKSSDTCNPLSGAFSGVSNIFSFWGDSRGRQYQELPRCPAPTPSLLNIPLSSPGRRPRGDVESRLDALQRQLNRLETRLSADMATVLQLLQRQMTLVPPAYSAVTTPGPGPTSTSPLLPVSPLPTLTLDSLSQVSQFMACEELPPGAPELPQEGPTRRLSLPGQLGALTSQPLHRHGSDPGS
- assay-protocol: Inhibition of human ERG expressed in CHO cells by whole-cell patch clamp assay
- Assay type: cell-based
pIC50: −log10 of the molar value.

compound: C[C@@H]1CN(c2ccc(S(C)(=O)=O)cc2F)CCN1c1nccc(C(=O)NC2C3CC4CC2CC(O)(C4)C3)n1 (stereo partly specified)
pIC50: 5.10

###

- assay-protocol: Toxicity in male mouse during 4-week repeated once daily oral-dose toxicity study
- run-parameters: in vivo, time 4 weeks

molecule: C[C@@H]1CN(c2ccc(S(C)(=O)=O)cc2F)CCN1c1nccc(C(=O)NC2C3CC4CC2CC(O)(C4)C3)n1 (stereo partly specified)
NOAEL at 672 h / mg/kg: 625

###

- tested-system: UniProtKB P11712
- Sequence (P11712 whole entry): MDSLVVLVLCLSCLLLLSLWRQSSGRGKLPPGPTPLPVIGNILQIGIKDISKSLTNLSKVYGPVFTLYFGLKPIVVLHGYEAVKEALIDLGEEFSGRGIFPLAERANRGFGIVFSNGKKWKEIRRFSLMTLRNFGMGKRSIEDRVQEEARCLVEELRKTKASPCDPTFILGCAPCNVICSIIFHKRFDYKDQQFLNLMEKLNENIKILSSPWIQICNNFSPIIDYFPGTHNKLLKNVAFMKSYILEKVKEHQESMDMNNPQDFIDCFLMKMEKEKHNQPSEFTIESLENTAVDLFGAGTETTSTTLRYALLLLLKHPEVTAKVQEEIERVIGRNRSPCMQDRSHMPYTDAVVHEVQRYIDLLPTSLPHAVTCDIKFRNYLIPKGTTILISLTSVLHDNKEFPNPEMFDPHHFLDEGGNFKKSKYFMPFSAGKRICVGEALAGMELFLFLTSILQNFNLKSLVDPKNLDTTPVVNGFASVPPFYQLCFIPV
pIC50: −log10 of the molar value.
Overview of reported pIC50 across a group of compounds:
observed-property: pIC50

compound: C[C@@H]1CN(c2ccc(S(C)(=O)=O)cc2)CCN1c1cccc(C(=O)NC2C3CC4CC2CC(O)(C4)C3)n1 (stereo partly drawn)
observed-property: pIC50
result-value: < 5.00

compound: C[C@@H]1CN(c2ccc(S(C)(=O)=O)cc2F)CCN1c1nccc(C(=O)NC2C3CC4CC2CC(O)(C4)C3)n1 (stereo partly drawn)
observed-property: pIC50
result-value: < 5.00

compound: C[C@@H]1CN(c2ccc(S(C)(=O)=O)cc2)CCN1c1nccc(C(=O)NC2C3CC4CC2CC(O)(C4)C3)n1 (stereo partly drawn)
observed-property: pIC50
result-value: < 5.00

###

- assay-protocol: Half life in rat at 1 mg/kg, iv
- Format: ADME, organism-based
- run-parameters: in vivo

compound: C[C@@H]1CN(c2ccc(S(C)(=O)=O)cc2F)CCN1c1nccc(C(=O)NC2C3CC4CC2CC(O)(C4)C3)n1 (stereo partly specified)
unit-descriptor: h
half-life: 1.8

###

- tested-system: Glucocorticoid receptor (Homo sapiens)
- Sequence (P04150 whole entry): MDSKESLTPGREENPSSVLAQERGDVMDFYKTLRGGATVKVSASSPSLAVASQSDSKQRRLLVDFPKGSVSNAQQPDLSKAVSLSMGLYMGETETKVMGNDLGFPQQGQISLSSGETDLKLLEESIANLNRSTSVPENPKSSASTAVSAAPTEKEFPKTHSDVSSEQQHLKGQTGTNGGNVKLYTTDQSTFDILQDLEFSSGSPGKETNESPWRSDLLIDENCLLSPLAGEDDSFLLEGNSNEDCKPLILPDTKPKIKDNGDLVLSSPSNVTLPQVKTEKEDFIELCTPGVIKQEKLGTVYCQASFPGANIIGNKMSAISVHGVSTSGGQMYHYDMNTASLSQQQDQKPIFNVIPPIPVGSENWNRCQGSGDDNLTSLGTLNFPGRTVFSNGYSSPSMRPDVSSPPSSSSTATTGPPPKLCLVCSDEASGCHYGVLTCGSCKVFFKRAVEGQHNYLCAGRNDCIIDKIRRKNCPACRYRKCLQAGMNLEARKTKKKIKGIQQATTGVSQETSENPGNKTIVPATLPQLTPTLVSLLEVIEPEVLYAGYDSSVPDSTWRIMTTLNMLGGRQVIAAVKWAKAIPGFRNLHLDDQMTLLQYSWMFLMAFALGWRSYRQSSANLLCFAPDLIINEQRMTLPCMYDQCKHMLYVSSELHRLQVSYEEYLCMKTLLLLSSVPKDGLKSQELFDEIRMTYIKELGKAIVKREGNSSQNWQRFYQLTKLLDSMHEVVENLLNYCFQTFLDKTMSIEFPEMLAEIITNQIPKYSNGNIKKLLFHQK
- assay-protocol: Antagonist activity at glucocorticoid receptor (unknown origin)

compound: C[C@@H]1CN(c2ccc(S(C)(=O)=O)cc2F)CCN1c1nccc(C(=O)NC2C3CC4CC2CC(O)(C4)C3)n1 (stereo partly specified)
EC50: > 5 µM

###

- assay-protocol: In-vivo inhibition of 11beta-HSD1 activity in C57BL/6 mouse epididymal fat assessed as reduction in cortisone to-cortisol conversion at 10 mg/kg, po measured after 2 hrs by ELISA
- Assay type: functional
- run-parameters: C57BL/6, Epididymal fat pad
Documented inhibition in vivo at 10 mg/kg across a set of compounds
observed-property: inhibition in vivo at 10 mg/kg (%)

compound: C[C@@H]1CN(c2ccc(S(C)(=O)=O)cc2Cl)CCN1c1nccc(C(=O)NC2C3CC4CC2CC(O)(C4)C3)n1 (stereo partly drawn)
unit-descriptor: %
result-value: 82
--
compound: Cc1cc(S(C)(=O)=O)ccc1N1CCN(c2nccc(C(=O)NC3C4CC5CC3CC(O)(C5)C4)n2)[C@H](C)C1 (stereo partly drawn)
unit-descriptor: %
result-value: 77
--
compound: C[C@@H]1CN(c2ccc(S(N)(=O)=O)cc2)CCN1c1cccc(C(=O)NC2C3CC4CC2CC(O)(C4)C3)n1 (stereo partly drawn)
unit-descriptor: %
result-value: 11
--
compound: C[C@@H]1CN(c2ccc(C(C)(C)O)nc2)CCN1c1cccc(C(=O)NC2C3CC4CC2CC(O)(C4)C3)n1 (stereo partly drawn)
unit-descriptor: %
result-value: 87
--
compound: C[C@@H]1CN(c2ccc(C(C)(C)O)cc2F)CCN1c1nccc(C(=O)NC2C3CC4CC2CC(O)(C4)C3)n1 (stereo partly drawn)
unit-descriptor: %
result-value: 74
--
compound: C[C@@H]1CN(c2ccc(S(C)(=O)=O)cc2F)CCN1c1nccc(C(=O)NC2C3CC4CC2CC(O)(C4)C3)n1 (stereo partly drawn)
unit-descriptor: %
result-value: 88
--
compound: C[C@@H]1CN(c2ccc(C(N)=O)cc2)CCN1c1cccc(C(=O)NC2C3CC4CC2CC(O)(C4)C3)n1 (stereo partly drawn)
unit-descriptor: %
result-value: 26
--
compound: C[C@@H]1CN(c2ccc(S(C)(=O)=O)cc2)CCN1c1cccc(C(=O)NC2C3CC4CC2CC(O)(C4)C3)n1 (stereo partly drawn)
unit-descriptor: %
result-value: 86

###

- assay-protocol: AUC in rat at 5 mg/kg, po
- Assay type: ADME, organism-based
- Parameters: dose 5 mg/kg
- run-parameters: in vivo
observed-property: AUC (ng·h/mL)

molecule: C[C@@H]1CN(c2ccc(S(C)(=O)=O)cc2F)CCN1c1nccc(C(=O)NC2C3CC4CC2CC(O)(C4)C3)n1 (stereo partly specified)
observed-property: AUC
result-value: 3390
